System: RSV (Long)
ASSAY PROCEDURE: RSV cytopathic effect (CPE)-based viral replication assay
Type: cell-based, respiratory syncytial virus (RSV)
PARTICULARS: human respiratory syncytial virus, HEp-2, 72 h, HEp-2 cells infected with RSV Long at MOI 0.015; 3 days at 37° C.; cell viability by CellTiter-Glo luminescence; read-out: EC50 (nm)
pEC50: −log10 of the molar value.
MEASURED QUANTITY: pEC50

INSERT INTO assay_data (compound, tested_system, obs_value) VALUES
  ('CS(=O)(=O)N1CC2(C1)C(=O)N(Cc1ncc3ccccc3c1-c1ccc(C(F)(F)F)cc1)c1ccccc12', 'RSV (Long)', 8.06),
  ('COC(=O)N1CC2(C1)C(=O)N(Cc1ncc3ccccc3c1-c1ccc(C#N)nc1)c1ccccc12 [Example 44c]', 'RSV (Long)', 8.55),
  ('CC(C)(C)c1ccc(-c2c(CN3C(=O)C4(CN(S(C)(=O)=O)C4)c4ccccc43)ncc3ccccc23)cc1', 'RSV (Long)', 6.70),
  ('NCCC(=O)N1CC2(C1)C(=O)N(Cc1ncc3ccccc3c1-c1cccnc1)c1ccccc12', 'RSV (Long)', 8.18),
  ('O=c1n(Cc2ncc3c(F)cccc3c2CCCCO)c2cnccc2n1C1CC1', 'RSV (Long)', 6.80);

1. O=c1n(Cc2ncc3ccccc3c2CCCC(F)(F)F)c2cnccc2n1C1CC1
2. COC(=O)N1CC2(C1)C(=O)N(Cc1ncc3ccccc3c1-c1ccnc(F)c1)c1ccccc12 [Example 95b]
3. CNC1(C(=O)N2CC3(C2)C(=O)N(Cc2ncc4ccccc4c2-c2ccc(NS(C)(=O)=O)cn2)c2ccccc23)CC1
4. COC(=O)N1CC2(C1)C(=O)N(Cc1nc(C(F)F)c3ccccc3c1-c1cccnc1)c1ccccc12
5. NC(=O)N1CC2(C1)C(=O)N(Cc1ncc3ccccc3c1CCCCO)c1ccccc12
Rank ascending by pEC50. Returns: the labels listed in the requested order. 4, 3, 1, 5, 2

1. CNC1(C(=O)N2CCC3(CC2)C(=O)N(Cc2ncc4ccccc4c2-c2ccc(C(N)=O)nc2)c2cnccc23)CC1 [Example 108b]
2. O=C(C1CCNCC1)N1CC2(C1)C(=O)N(Cc1ncc3ccccc3c1-c1cccnc1)c1ccccc12 [Example 149b]
Which value of pEC50 is numerically greater: that of 1 or that of 2 ? Write down the label of the entry you select. 1
(1: 8.92, 2: 8.22)

a. CC(C)(C)NC(=O)N1CC2(C1)C(=O)N(Cc1ncc3ccccc3c1-c1ccc(C#N)nc1)c1ccccc12
b. CNC(=O)N1CC2(C1)C(=O)N(Cc1ncc3ccccc3c1CCCCO)c1ccccc12
Lab note: check whether a or b has the lower measured pEC50. Write down the label of the entry you select. b
(b: 8.19, a: 8.85)

* * *

Test system: RSV (Long)
ASSAY PROCEDURE: RSV cytopathic effect (CPE)-based viral replication assay
Format: cell-based, respiratory syncytial virus (RSV)
PARTICULARS: human respiratory syncytial virus, HEp-2, 72 h, HEp-2 cells infected with RSV Long at MOI 0.015; 3 days at 37° C.; cell viability by CellTiter-Glo luminescence; read-out: EC50 (nm)
pEC50: −log10 of the molar value.
MEASURED QUANTITY: pEC50

INSERT INTO measurements (compound, tested_system, obs_value) VALUES
  ('NC1(C(=O)N2CCC3(CC2)C(=O)N(Cc2ncc4ccccc4c2-c2ccncc2)c2cnccc23)CC1', 'RSV (Long)', 8.15);

I. CS(=O)(=O)N1CCC2(CC1)C(=O)N(Cc1ncc3cc(Cl)ccc3c1-c1ccncc1)c1cnccc12
II. O=c1n(Cc2ncc3cc(F)ccc3c2CCCCO)c2cnccc2n1C1CC1
Lab note: check whether I or II has the lower measured pEC50. Write down the label of the entry you select. II
(II: 7.39, I: 9.46)

A. COC(=O)N1CCC(n2c(=O)n(Cc3ncc4cc(F)ccc4c3CCCCO)c3cnccc32)CC1
B. COC(=O)N1CC2(C1)C(=O)N(Cc1ncc3ccccc3c1-c1ccc(S(N)(=O)=O)cc1)c1ccccc12
C. O=c1n(Cc2ncc3ccccc3c2CCCCO)c2cnccc2n1-c1ccc(F)cc1
D. COC(=O)N1CC2(C1)C(=O)N(Cc1ncc3ccccc3c1-c1ccc(F)nc1)c1ccccc12
Rank ascending by pEC50. Returns: the labels listed in the requested order. C, A, D, B

a. CNC1(C(=O)N2CCC3(CC2)C(=O)N(Cc2ncc4ccccc4c2-c2ccc(C(=O)N(C)C)nc2)c2cnccc23)CC1
b. COC(=O)N1CC2(C1)C(=O)N(Cc1ncc3ccccc3c1-c1ccc(NS(C)(=O)=O)nc1)c1ccccc12 [Example 134b]
c. O=C(N1CCC2(CC1)C(=O)N(Cc1ncc3ccccc3c1-c1cccnc1)c1cnccc12)C(F)(F)F [Example 129b]
d. CS(=O)(=O)N1CCC2(CC1)C(=O)N(Cc1ncc3ccccc3c1-c1cnc(C(N)=O)cn1)c1cnccc12
e. CS(=O)(=O)N1CCC2(CC1)C(=O)N(Cc1ncc3cc(F)ccc3c1-c1cncs1)c1cnccc12
Order the records so the highest pEC50 appears first and the lowest last. Returns: the labels listed in the requested order. b, e, c, a, d
(b: 9.26, e: 8.82, c: 8.28, a: 8.07, d: 7.47)

* * *

System: RSV (Long)
ASSAY PROCEDURE: RSV cytopathic effect (CPE)-based viral replication assay
Assay type: cell-based, respiratory syncytial virus (RSV)
PARTICULARS: human respiratory syncytial virus, HEp-2, 72 h, HEp-2 cells infected with RSV Long at MOI 0.015; 3 days at 37° C.; cell viability by CellTiter-Glo luminescence; read-out: EC50 (nm)
MEASURED QUANTITY: EC50 (nM)

Below are worked cases with known answers.
INSERT INTO assay_data (molecule, measurement_unit, obs_value) VALUES
  ('COC(=O)N1CC2(C1)C(=O)N(Cc1ncc3ccccc3c1-c1cnccn1)c1ccccc12 [Example 103]', 'nM', 18),
  ('CS(=O)(=O)N1CCC2(CC1)C(=O)N(Cc1ncc3cc(Cl)ccc3c1-c1cncs1)c1ccccc12 [Example 169b]', 'nM', 1.3),
  ('CS(=O)(=O)N1CC2(C1)C(=O)N(Cc1ncc3ccccc3c1-c1ccc(F)nc1)c1ccccc12 [Example 78]', 'nM', 0.9);

a. CC1(S(=O)(=O)N2CC3(C2)C(=O)N(Cc2ncc4ccccc4c2-c2ccc(C#N)nc2)c2ccccc23)CC1 [Example 61]
b. NCc1ccc2c(CCCCO)c(Cn3c(=O)n(C4CC4)c4ccccc43)ncc2c1 [Example 27]
Which value of EC50 is numerically greater: that of a or that of b ? Write down the label of the entry you select. b

a. CS(=O)(=O)N1CCC2(CC1)C(=O)N(Cc1ncc3ccccc3c1-c1ccc(C3(N)CC3)nc1)c1cnccc12 [Example 2026]
b. COC(=O)c1ccc(-c2c(CN3C(=O)C4(CCN(C(=O)C5(N)CC5)CC4)c4ccncc43)ncc3ccccc23)cn1 [Example 50c]
Which value of EC50 is numerically greater: that of a or that of b ? Write down the label of the entry you select. b

* * *

Tested on: RSV (Long)
ASSAY PROCEDURE: RSV cytopathic effect (CPE)-based viral replication assay
Type: cell-based, respiratory syncytial virus (RSV)
PARTICULARS: human respiratory syncytial virus, HEp-2, 72 h, HEp-2 cells infected with RSV Long at MOI 0.015; 3 days at 37° C.; cell viability by CellTiter-Glo luminescence; read-out: EC50 (nm)
pEC50: −log10 of the molar value.
MEASURED QUANTITY: pEC50

a. COC(=O)N1CCC(n2c(=O)n(Cc3ncc4cc(Cl)ccc4c3CCCCO)c3cnccc32)CC1
b. NC1(NC(=O)N2CC3(C2)C(=O)N(Cc2ncc4ccccc4c2-c2cccnc2)c2ccccc23)CC1
c. NC1(C(=O)N2CCC3(CC2)C(=O)N(Cc2ncc4ccccc4c2-c2ccc(C(=O)O)nc2)c2cnccc23)CC1 [Example 50b]
Rank descending by pEC50. Returns: the labels listed in the requested order. b, c, a
(b: 8.70, c: 8.37, a: 8.07)

* * *

System: RSV (Long)
ASSAY PROCEDURE: RSV cytopathic effect (CPE)-based viral replication assay
Format: cell-based, respiratory syncytial virus (RSV)
PARTICULARS: HEp-2 cells infected with RSV Long at MOI 0.015; 3 days at 37° C.; cell viability by CellTiter-Glo luminescence; read-out: EC50 (nm)
MEASURED QUANTITY: EC50 (nM)

INSERT INTO assay_data (compound, tested_system, obs_value) VALUES
  ('O=C1CC(c2c(Cn3c(=O)n(C4CC4)c4ccncc43)ncc3ccccc23)CN1 (stereo not shown) [Example 2019]', 'RSV (Long)', 15);

I. O=C1N(Cc2ncc3ccccc3c2-c2ccc(F)nc2)c2ccccc2C12CC(NCCF)C2 (single isomer, unassigned) [Example 87-1]
II. CS(=O)(=O)N1CCC2(CC1)C(=O)N(Cc1ncc3ccccc3c1C1CNC(=O)C1)c1cnccc12 (stereo not shown) [Example 2018]
III. O=C1CC(c2c(Cn3c(=O)n(C4CC4)c4ccncc43)ncc3ccccc23)CN1 (stereo not shown) [Example 112c]
Order the records so the highest EC50 appears first and the lowest last. Returns: the labels listed in the requested order. II, I, III
